Field: % Inhibition. Provide a value for each of the compounds that follow.
test system: Plasmodium falciparum; experiment: Confirmatory screen in NF54 pLDH assay, in single point, at 2uM, 72h; type: functional, Erythrocyte; conditions: timepoint 72 hour
The whole screen tested about 4,800 compounds, of which about 410 (8.5%) showed an effect of 50% or more. The sample holds strong results, similar compounds and a random draw of the others, so the mix is not that of the screen.
The reply should be a number in %, with the unit left off.

Given `Cc1ccc(Nc2ccc(N3CCNCC3)nn2)nc1` , state its recorded % Inhibition.
58

And then `CC(C)c1nnc(Cn2nnc(-c3ccncn3)n2)s1` , what is it?
-12

And then `COc1ccc(S(=O)(=O)N2CCN(S(=O)(=O)c3ccc(OC)cc3)C2)cc1` , what is it?
-2

And then `Cc1nnc2sc(-c3cnn(-c4ccccn4)c3C(F)(F)F)nn12` , what is it?
-4

And then `C[C@H](NC(c1ccccc1)c1ccccc1)c1nnc(-c2cccs2)o1` , what is it?
7

And then `Cc1oc(-c2ccc(C(=O)Nc3cccc(Cl)c3C)cc2)nc1COc1ccccc1` , what is it?
9

And then `Cc1nn(CC2(O)CCCCC2)c(=O)c(C#N)c1C` , what is it?
-10

And then `Cc1ccnc(N2CCN(S(=O)(=O)Cc3ccon3)CC2)c1` , what is it?
15

And then `Cc1cnc([C@H](C)NC(=O)c2conc2C(C)(C)N)s1` , what is it?
9

And then `CCOc1cc(CNCCN2CCOCC2)cc(Cl)c1OCc1ccccc1` , what is it?
9

And then `COc1ccccc1OCC(=O)Nc1ccccc1-n1cnnc1C` , what is it?
12

###

test system: Plasmodium falciparum; test: Confirmatory screen in NF54 pLDH assay, in single point, at 2uM, 72h; format: functional, Erythrocyte; conditions: timepoint 72 hour
In all, about 4,800 compounds went through this assay and about 410 (8.5%) showed an effect of 50% or more. What follows is part of a selection rich in strong results, with near analogues and random picks from the rest.
property_name: % Inhibition (%)
The reply should be a number in %, with the unit left off.

Given `CC1=NN(c2nc(C)cc(O)n2)C(=O)C1` , state its recorded % Inhibition.
-6

And then `Cc1nc2cccnc2n1-c1cc(C(=O)NCC[C@H](C)N2CCCC2)ccc1Cl` , what is it?
8

And then `Cc1cc(C(=O)N[C@@H](C)c2nnc3n2CCCCC3)c(C)s1` , what is it?
3

And then `CC(C)c1ccc(S(=O)(=O)Nc2ccc3nc(NC(=O)c4ccccc4)sc3c2)cc1` , what is it?
6

And then `CCc1nc2cc(N3CCC(C(=O)Nc4ccc5c(c4)OCO5)CC3)cnc2nc1CC` , what is it?
8

###

test system: Plasmodium falciparum; experiment: Confirmatory screen in NF54 pLDH assay, in single point, at 2uM, 72h; assay type: functional, Erythrocyte; conditions: timepoint 72 hour
Out of some 4,800 compounds screened, about 410 (8.5%) showed an effect of 50% or more. This is one part of a sample in which strong results are shown more often than they occur.
Field: % Inhibition. Provide a value for each of the molecules that follow.
The reply should be a number in %, with the unit left off.

Given `CC(C)C(=O)N1N=C(C(C)C)C[C@]1(O)C(F)(F)F` , state its recorded % Inhibition.
13

And then `CCN1C(=O)CN(C(=O)c2cccc(C)c2)CC12CCOCC2` , what is it?
9

And then `Cc1cc(C(=O)Nc2nc(-c3ccc4c(c3)CCC4)n[nH]2)no1` , what is it?
7

And then `Oc1ccccc1CCN[C@H]1CCc2ccc(F)cc21` , what is it?
95

And then `COC(=O)[C@@H]1[C@@H](NC(=O)C2CCCC2)CCN1C(C)=O` , what is it?
1

And then `CN(Cc1ccc(F)cc1Cl)[C@H]1CCc2nnc(C3CCOCC3)n2CC1` , what is it?
-4

And then `O=C(Nc1ccccc1-n1ccnc1)c1cnccn1` , what is it?
-7

And then `CCc1nc(C(=O)N2C[C@@H]3CCCN(C(=O)c4coc(CC)n4)[C@@H]3C2)co1` , what is it?
0

And then `CN(C)c1nc(N)cc(-c2cccc3cccnc23)n1` , what is it?
55

And then `O=C1c2ccccc2N[C@]2(C(=O)Nc3ccccc32)N1c1ccc2c(c1)OCO2` , what is it?
-25

And then `Cc1noc(CCNC(=O)N2CCCCC[C@H]2c2ccc(C)o2)n1` , what is it?
-1

And then `Clc1cc(CN2CC[C@@]3(CCCOC3)C2)ccc1OCCN1CCOCC1` , what is it?
11

And then O=S(=O)(NC1CC(c2ccc(F)c(Cl)c2)C1)C1CC1 (stereo not drawn) , what is it?
7

And then `COc1ccc2cc3n(c2c1)C[C@](C(=O)NC1CCCCCC1)(c1ccccc1)N(Cc1ccc(OC(C)C)cc1)C3=O` , what is it?
-23

And then O=C(C1CC1c1ccccc1)N(c1ccc(F)cn1)C1CCOCC1 (stereo not drawn) , what is it?
7

And then `Cc1cc(NS(=O)(=O)c2cccs2)n(-c2ccncc2)n1` , what is it?
9

And then `Cc1ccc(-c2ccnn2C)cc1NC(=O)[C@H]1CCCOC1` , what is it?
13

And then Cc1nnc(CC(=O)NC2CC(OCc3ccccc3)C2(C)C)o1 (stereo not drawn) , what is it?
8

And then `O=S(=O)(Nc1cccc2cccnc12)c1cccs1` , what is it?
64

And then `O=S(=O)(Nc1nncs1)c1cccs1` , what is it?
-10

And then `CCN1C(=O)Cc2cc(NC(=O)c3ccc(Br)o3)ccc21` , what is it?
12

And then `c1ccc(N2CCN(CCN[C@H]3CCc4cc5c(cc43)CCC5)CC2)cc1` , what is it?
9

And then `COc1cc(CN(CC(N)=O)C(C)C)ccc1C` , what is it?
9
